Tested on: SF-295 CNS
Test: NCI-60 one-dose screen, 48 h
Details: 10 µM unless noted
About 83,000 compounds went through this panel and 20% of them were active in at least one assay; those are over-represented in the sample as a whole. Active and inactive are the calls of the source. The calls were made as follows: active = growth percent below 10; inactive = the rest.
Mark one answer only. Choices: active, inactive

Worked cases, answers included:
COc1cc(NC(=O)CSc2nc3ccc(Cl)cc3c(=O)n2-c2ccccc2)cc(OC)c1OC | inactive
CC(=O)C1CCC2C3CC(C)=C4CC(O)CCC4(C)C3CCC12C (centres undefined) | inactive
O=[N+]([O-])c1ccc(N/N=C/c2ccccc2O)nc1 | inactive
C=CCCCCOc1cccc(/C=C2\N=C3SCCCN3C2=O)c1 | inactive
O=C1/C=C/[C@@H](O)[C@@H]2C[C@@H](O)C[C@H]2/C=C/CCC[C@H]([C@@H](O)CO)O1 | inactive
Cc1ccc(NC(=O)c2sc3nc4c(cc3c2N)C(=O)CCC4)cc1Cl | inactive
CN(C)N1C(=O)c2c(Cl)c(Cl)c(Cl)c(Cl)c2C1=O | inactive
COc1cc(C2CC(c3ccc(C)cc3)=NN2C=O)ccc1Oc1ccnc2cc(Cl)ccc12 (centres undefined) | active
COc1cccc(/C(C)=N/NC(=O)CSc2nc3ccccc3c(=O)n2CCc2ccc(S(N)(=O)=O)cc2)c1 | inactive
Fc1ccc(-c2nc(-c3ccc(-c4nc5ccc(F)cc5[nH]4)cc3)no2)cc1 | inactive

Query block: Record lookup: outcome of this test for COc1ccc(C(=O)OC2C(OC3C(O)COC(O[C@H]4C[C@H]5[C@@H]6CC=C7C[C@@H](O)CC[C@]7(C)[C@H]6CC[C@]5(C)[C@H]4[C@H](C)C(=O)CCC(C)C)C3OC(C)=O)OCC(O)C2O)cc1 (some centres undefined) ?
Result block: active

Query block: Record lookup: outcome of this test for `O=C(Nc1ccc(Br)cc1)Nc1cccc(Br)c1` ?
Result block: inactive

----------
System: CAKI-1 renal
Assay: NCI-60 one-dose screen, 48 h
Details: 10 µM unless noted
Method: Growth inhibition of the CAKI-1 human tumor cell line is measured as a screen for anti-cancer activity. Cells are grown in 96 well plates and exposed to the test compound for 48 hours. Compounds are tested at a single concentration, which is 10^-5 M for most compounds. The reported endpoint is percent growth (GI% or GIPRCNT), where numbers from 0 - 100% represent growth inhibition, and numbers from -100% - 0 represent cell death. For example, a value of 40 represents 60% growth inhibition. […]
This is part of a sample that, as a whole, favours compounds with a hit. Of some 83,000 tested, about 20% had one in any assay. Active and inactive are the calls of the source. The calls were made as follows: active = growth percent below 10; inactive = the rest.
Mark one answer only. Choices: active, inactive

Worked cases, answers included:
COc1ccc(/C=C/c2nc3ccccc3c(=O)n2-c2ccc(C#Cc3ccc(C(C)(C)C)cc3)cc2C)c(OC)c1 | inactive
COc1ccc2nc3ccccc3c(NCc3ccc(Cl)cc3)c2c1 | inactive
Cc1ccccc1C1CC(=O)c2ccccc2C1C (centres undefined) | inactive

Query block: Record lookup: outcome of this test for `CCN(CC)CC(=O)Nc1c(C)cc(C(=O)NN)cc1C` ?
Result block: inactive

----------
Tested on: LOX IMVI melanoma
Test: NCI-60 one-dose screen, 48 h
Conditions: 10 µM unless noted
About 83,000 compounds went through this panel and 20% of them were active in at least one assay; those are over-represented in the sample as a whole. Calls of active or inactive are those of the source. Rule for the calls: active = growth percent below 10; inactive = the rest.
Mark one answer only. Choices: yes = active, no = inactive

COc1cc(Cl)cc(-c2nn(C(=O)NCCN3CCOCC3)cc2-c2ccncc2)c1 | no

# next molecule below
Query block: Record lookup: outcome of this test for `CN(C)CCNC(=O)n1cc(-c2ccncc2)c(-c2cc(O)cc(Cl)c2)n1` ?
Result block: no
